Cited source for all entries: patent US20240043386A1

Kindly state EC50 for each of the entries shown.
measuredTarget: F508del/F508del CFTR (Homo sapiens, UniProt P13569, DEL508-508)
Construct: cells isolated from CF patients with the homozygous mutation; endogenous in cells
Sequence (P13569 with tags, fused parts or gaps DEL508-508): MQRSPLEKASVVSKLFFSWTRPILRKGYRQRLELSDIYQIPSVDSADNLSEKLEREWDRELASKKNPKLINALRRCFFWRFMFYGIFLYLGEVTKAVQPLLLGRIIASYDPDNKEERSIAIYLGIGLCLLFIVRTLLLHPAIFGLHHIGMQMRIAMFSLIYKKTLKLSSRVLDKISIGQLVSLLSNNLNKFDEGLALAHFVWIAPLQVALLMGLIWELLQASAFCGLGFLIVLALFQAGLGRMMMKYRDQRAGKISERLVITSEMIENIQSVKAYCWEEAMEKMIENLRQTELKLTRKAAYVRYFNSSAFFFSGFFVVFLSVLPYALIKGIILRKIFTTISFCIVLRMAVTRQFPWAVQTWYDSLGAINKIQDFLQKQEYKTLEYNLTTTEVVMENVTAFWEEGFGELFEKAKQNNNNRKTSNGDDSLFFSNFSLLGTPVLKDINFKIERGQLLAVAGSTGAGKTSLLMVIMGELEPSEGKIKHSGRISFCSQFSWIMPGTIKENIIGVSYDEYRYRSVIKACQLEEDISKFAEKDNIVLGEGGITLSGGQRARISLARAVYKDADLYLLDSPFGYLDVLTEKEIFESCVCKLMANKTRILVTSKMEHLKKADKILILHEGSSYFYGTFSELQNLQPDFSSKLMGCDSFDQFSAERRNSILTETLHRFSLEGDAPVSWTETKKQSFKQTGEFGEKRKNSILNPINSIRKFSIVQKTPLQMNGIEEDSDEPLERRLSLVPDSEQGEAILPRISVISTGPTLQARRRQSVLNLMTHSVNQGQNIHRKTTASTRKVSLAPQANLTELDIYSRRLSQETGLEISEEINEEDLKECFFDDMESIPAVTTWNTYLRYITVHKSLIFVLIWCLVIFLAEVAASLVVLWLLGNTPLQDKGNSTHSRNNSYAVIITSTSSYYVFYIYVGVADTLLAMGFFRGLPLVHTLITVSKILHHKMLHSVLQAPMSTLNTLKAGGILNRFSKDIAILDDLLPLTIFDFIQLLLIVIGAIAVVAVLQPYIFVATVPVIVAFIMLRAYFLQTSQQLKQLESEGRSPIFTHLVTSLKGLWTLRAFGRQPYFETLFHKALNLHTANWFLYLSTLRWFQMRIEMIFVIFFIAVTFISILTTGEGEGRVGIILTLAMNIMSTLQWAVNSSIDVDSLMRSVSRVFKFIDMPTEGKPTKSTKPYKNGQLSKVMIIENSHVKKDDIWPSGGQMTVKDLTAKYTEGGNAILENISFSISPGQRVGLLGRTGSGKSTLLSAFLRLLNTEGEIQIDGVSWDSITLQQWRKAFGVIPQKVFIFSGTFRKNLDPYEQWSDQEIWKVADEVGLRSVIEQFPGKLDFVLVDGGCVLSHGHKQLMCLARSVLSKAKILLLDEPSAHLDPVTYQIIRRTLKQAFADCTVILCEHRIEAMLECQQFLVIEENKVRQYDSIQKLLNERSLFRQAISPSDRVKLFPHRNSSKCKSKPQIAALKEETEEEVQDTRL
testSummary: Trans-Epithelial Current Clamp (TECC) assay using primary human bronchial epithelial cells
condition: primary hBE cells homozygous F508del/F508del; test C2 corrector with co-corrector and potentiator, 18-24 hours at 37° C.; equivalent CFTR current (IEQ)/AUC
Give bare numbers, in nM.

Would you please look over these solved cases?
compound	measuredTarget	EC50 / nM
COc1ccc(C)cc1[C@]1(C(=O)NS(=O)(=O)c2cccc3nc(C)ccc23)C[C@@H]1c1cnc(OC)c(Cl)c1 [Example 102]	F508del/F508del CFTR (Homo sapiens, UniProt P13569, DEL508-508)	32.7
COc1ccc(C)cc1[C@]1(C(=O)NS(=O)(=O)c2cccc3nc(C)ccc23)C[C@@H]1c1cnc(C)c(F)c1 (single isomer, unassigned) [Example 100]	F508del/F508del CFTR (Homo sapiens, UniProt P13569, DEL508-508)	114

// switching to the query compound
Q: Specify EC50 for COc1ccc(C)cc1[C@@]1(C(=O)NS(=O)(=O)c2cccc3nc(C)ccc23)C[C@H]1c1ccc(C(C)C)nc1OC (single isomer, unassigned) [Example 87] and stop.
Result: 6.9

* * *

Kindly state Maximum % activity (without co-corrector) for each of the entries shown.
measuredTarget: F508delCFTR (Homo sapiens, UniProt P13569, DEL508-508)
Construct: expressed in transfected cells; host or cells: CFBE41o- human lung-derived epithelial cell line, doxycycline-inducible expression
testSummary: Cell Surface Expression-Horse Radish Peroxidase (CSE-HRP) assay in CFBE41o-F508delCFTR-HRP cells
Type: cell-based
condition: without co-corrector; normalized to on-plate positive control corrector (2 μM)

compound	measuredTarget	result
COc1ccc(C)cc1[C@]1(C(=O)NS(=O)(=O)c2cccc3nc(C)ccc23)C[C@@H]1c1cnc(OC)c(OC)n1	F508delCFTR (Homo sapiens, UniProt P13569, DEL508-508)	925%
COc1ccc([C@@H]2C[C@]2(C(=O)NS(=O)(=O)c2cccc3nc(C)ccc23)c2cc(C)ccc2OC)c(OC)n1 (racemic) [Example 79]	F508delCFTR (Homo sapiens, UniProt P13569, DEL508-508)	388%
COc1ccc(C)cc1[C@@]1(C(=O)NS(=O)(=O)c2cccc3nc(C)ccc23)C[C@H]1c1cnc(C(C)C)cn1 (single isomer, unassigned) [Example 63]	F508delCFTR (Homo sapiens, UniProt P13569, DEL508-508)	399%
COc1ccc(C)cc1[C@]1(C(=O)NS(=O)(=O)c2cccc3nc(C)ccc23)C[C@@H]1c1ccccn1	F508delCFTR (Homo sapiens, UniProt P13569, DEL508-508)	520%
COc1ccc(C)cc1[C@]1(C(=O)NS(=O)(=O)c2cccc3nc(C)ccc23)C[C@@H]1c1ccccc1C(F)(F)F (single isomer, unassigned) [Example 30]	F508delCFTR (Homo sapiens, UniProt P13569, DEL508-508)	589%

Q: Specify Maximum % activity (without co-corrector) for COc1cncc([C@@H]2C[C@]2(C(=O)NS(=O)(=O)c2cccc3nc(C)ccc23)c2cc(C)ccc2OC)c1 (racemic) [Example 41] and stop.
Result: 497%

* * *

measuredTarget: F508delCFTR (Homo sapiens, UniProt P13569, DEL508-508)
Construct: expressed in transfected cells; host or cells: CFBE41o- human lung-derived epithelial cell line, doxycycline-inducible expression
testSummary: Cell Surface Expression-Horse Radish Peroxidase (CSE-HRP) assay in CFBE41o-F508delCFTR-HRP cells
Format: cell-based
condition: with co-corrector (2 μM); CFBE41o-F508delCFTR-HRP cells, 18-24 hours at 33° C., luminescence; read-out: EC50 (with co-corrector)
observable: pEC50
One number for each entry, as −log10 of the molar value.

molecule	measuredTarget	number
COc1ccc(C)cc1[C@@]1(C(=O)NS(=O)(=O)c2cccc3nc(C)ccc23)C[C@H]1c1cccc(F)c1 (single isomer, unassigned) [Example 20]	F508delCFTR (Homo sapiens, UniProt P13569, DEL508-508)	6.69
COc1cnc([C@@H]2C[C@]2(C(=O)NS(=O)(=O)c2cccc3nc(C)ccc23)c2cc(C)ccc2OC)cn1 (racemic) [Example 39]	F508delCFTR (Homo sapiens, UniProt P13569, DEL508-508)	6.19
CCOc1ccc([C@@H]2C[C@]2(C(=O)NS(=O)(=O)c2cccc3nc(C)ccc23)c2cc(C)ccc2OC)cn1 [Example 59]	F508delCFTR (Homo sapiens, UniProt P13569, DEL508-508)	6.11

Here are 2 molecules. What values of pEC50 were reported for them?
1. COc1cccc([C@@H]2C[C@]2(C(=O)NS(=O)(=O)c2cccc3nc(C)ccc23)c2cc(C)ccc2OC)n1 [Example 44]
2. COc1ccc(C)cc1[C@]1(C(=O)NS(=O)(=O)c2cccc3nc(C)ccc23)C[C@@H]1c1ccccn1 [Example 14]

Result:
1. 6.06
2. 5.55

* * *

measuredTarget: F508delCFTR (Homo sapiens, UniProt P13569, DEL508-508)
Construct: expressed in transfected cells; host or cells: CFBE41o- human lung-derived epithelial cell line, doxycycline-inducible expression
testSummary: Cell Surface Expression-Horse Radish Peroxidase (CSE-HRP) assay in CFBE41o-F508delCFTR-HRP cells
Type: cell-based
condition: without co-corrector; normalized to on-plate positive control corrector (2 μM)
observable: Maximum % activity (without co-corrector) (%)
Numbers only, in %.

Would you please look over these solved cases?
compound	quantityUnit	number
COc1ncc([C@@H]2C[C@]2(C(=O)NS(=O)(=O)c2cccc3nc(C)ccc23)c2cc(C)ccc2OC)cn1 (racemic) [Example 36]	%	248
COc1ccc(C)cc1[C@]1(C(=O)NS(=O)(=O)c2cccc3nc(C)ccc23)C[C@@H]1c1cncc(F)c1 (single isomer, unassigned)	%	890

// switching to the query compound
Q: Specify Maximum % activity (without co-corrector) for CCOc1cnc([C@@H]2C[C@]2(C(=O)NS(=O)(=O)c2cccc3nc(C)ccc23)c2cc(C)ccc2OC)cn1 (racemic) [Example 62] and stop.
Result: 483

* * *

Kindly state Maximum % activity (without co-corrector) for each of the entries shown.
measuredTarget: F508delCFTR (Homo sapiens, UniProt P13569, DEL508-508)
Construct: expressed in transfected cells; host or cells: CFBE41o- human lung-derived epithelial cell line, doxycycline-inducible expression
testSummary: Cell Surface Expression-Horse Radish Peroxidase (CSE-HRP) assay in CFBE41o-F508delCFTR-HRP cells
Format: cell-based
condition: without co-corrector; normalized to on-plate positive control corrector (2 μM)
Protocol: A cellular assay for measuring the F508delCFTR cell surface expression after correction with test compounds either without or with a co-corrector (2 μM of 3-[(2R,4R)-4-({[1-(2,2-difluoro-1,3-benzodioxol-5-yl)cyclopropyl]carbonyl}amino)-7-methoxy-3,4-dihydro-2H-chromen-2-yl]benzoic acid), was developed in human lung derived epithelial cell line (CFBE4lo-) (Veit G et al, (2012) Mol Biol Cell. 23(21): 4188-4202). […] The raw counts from the experiment were analyzed using Accelrys® Assay Explorer v3.3. […]

compound	result
COc1ccc(C)cc1[C@@]1(C(=O)NS(=O)(=O)c2cccc3nc(C)ccc23)C[C@H]1c1cccnc1OC [Example 49]	453%

Here are 5 compounds. What values of Maximum % activity (without co-corrector) were reported for them?
1. COc1cnc([C@@H]2C[C@]2(C(=O)NS(=O)(=O)c2cccc3nc(C)ccc23)c2cc(C)ccc2OC)cn1 (single isomer, unassigned) [Example 47]
2. CCOc1ccc([C@@H]2C[C@]2(C(=O)NS(=O)(=O)c2cccc3nc(C)ccc23)c2cc(C)ccc2OC)cn1
3. COc1ccc(C)cc1[C@@]1(C(=O)NS(=O)(=O)c2cccc3nc(C)ccc23)C[C@H]1c1cncc(C)n1 (racemic) [Example 35]
4. COc1ncc([C@@H]2C[C@]2(C(=O)NS(=O)(=O)c2cccc3nc(C)ccc23)c2cc(C)ccc2OC)cn1 (single isomer, unassigned) [Example 37]
5. COc1ccc(C)cc1[C@]1(C(=O)NS(=O)(=O)c2cccc3nc(C)ccc23)C[C@@H]1c1ccc(C)nc1C

Result:
1: 322%; 2: 438%; 3: 582%; 4: 113%; 5: 476%

Here are 7 compounds. What values of Maximum % activity (without co-corrector) were reported for them?
1. COc1ccc(C)cc1[C@@]1(C(=O)NS(=O)(=O)c2cccc3nc(C)ccc23)C[C@H]1c1ccccc1C(F)(F)F (single isomer, unassigned)
2. COc1ccc(C)cc1[C@]1(C(=O)NS(=O)(=O)c2cccc3nc(C)ccc23)C[C@@H]1c1ccc(C(C)C)nn1
3. COc1ccc([C@@H]2C[C@]2(C(=O)NS(=O)(=O)c2cccc3nc(C)ccc23)c2cc(C)ccc2OC)cn1
4. COc1ccc(C)cc1[C@@]1(C(=O)NS(=O)(=O)c2cccc3nc(C)ccc23)C[C@H]1c1ccc(C(C)C)nc1OC (single isomer, unassigned) [Example 87]
5. COc1cncc([C@@H]2C[C@]2(C(=O)NS(=O)(=O)c2cccc3nc(C)ccc23)c2cc(C)ccc2OC)n1 (single isomer, unassigned)
6. COc1ccc(C)cc1C1(C(=O)NS(=O)(=O)c2cccc3nc(C)ccc23)CC1c1ccc(C(F)(F)F)cc1 (racemic)
7. COc1ccc(C)cc1[C@@]1(C(=O)NS(=O)(=O)c2cccc3nc(C)ccc23)C[C@H]1c1ccc(C)cc1 (racemic) [Example 4]

Result:
1: 776%; 2: 170%; 3: 470%; 4: 881%; 5: 188%; 6: 741%; 7: 944%
